- Experimental system: GAL4 DBD-CfEcR(DEF)/VP16AD-MmRXRE (Choristoneura fumiferana, UniProt O77240)
- Method: 13B3 Assay (CHO stable cell line, luciferase reporter)
- Test context: read-out: Fold Induction, 13B3 Assay, 3.3 uM
Outcome measure: fold induction at 3.3 µM

COc1cccc(C(=O)NN(C(=O)c2cc(C)cc(C)c2)C(C)(C)C)c1COC(C)=O	3
COc1cc(C(=O)N(NC(=O)c2ccc3c(c2C)OCCO3)C(C)(C)C#N)cc(OC)c1C	2320
CCc1ccc(C(=O)NN(C(=O)c2cc(C)cc(C)c2)C(C)(C)C)c(F)c1	831
CCc1c(OC)cccc1C(=O)NN(C(=O)c1cc(C)cc(C)c1)C(C)(C)COC	4180
COc1cc(C(=O)N(NC(=O)c2ccc3c(c2C)OCCO3)C(C)(C)C)cc(OC)c1C	1110
CCc1c(OC)cccc1C(=O)NN(C(=O)c1cc(C)cc(C)c1)C(C)(C)C=NO	144
CCc1c(OC)cccc1C(=O)NN(C(=O)c1cc(C)cc(C)c1)C(C)(C)C=O	2480
COc1cccc(C(=O)NN(C(=O)c2cc(C)cc(C)c2)C(C)(C)C)c1CCl	2
Cc1c(C(=O)NN(C(=O)c2cc(F)c(F)c(F)c2)C(C)(C)C)ccc2c1CCCO2	3080
COc1cccc(C(=O)NN(C(=O)c2cc(C)cc(C)c2)C(C)(C)C)c1CSC	1

meta.source: patent US9102648B1
